System: HepG2 cell line
Method notes: In vitro toxicity study on HepG2 cell line (resazurin, viability and IC50)
Assay type: cell-based, human
Particulars: HepG2 cells, 800 μM lipid, 48 h post-treatment, resazurin, relative to ethanol vehicle controls
Measurement label: Viability (%) at different lipid concentrations, mean
One number for each entry, in %.

Some solved cases for reference:
Compound	Assay system	Reported
CCCCCCCC/C=C\CCCCCCCCOC(CCCCCCCCCCCCCCC)O[Si](C)(C)OCCCCCCN(CCO)CCO (stereo not drawn)	HepG2 cell line	90.7
CCCCCCCC/C=C\CCCCCCCCOC(=O)C(C)(C)CCC(OCCCCCCCC/C=C\CCCCCCCC)O[Si](C)(C)OCCCCCCN1CCOCC1 (stereo not drawn)	HepG2 cell line	104.6

Tell me the measured Viability (%) at different lipid concentrations, mean of CCCCCCCC/C=C\CCCCCCCCOC(CCCCCCC/C=C\CCCCCCCC)O[Si](C)(C)OCCCCCCN(C)[C@H](CO)Cc1ccccc1 (stereo partly drawn) , please.
1.6

* * *

Method notes: Encapsulation efficiency of loaded LNPs, RiboGreen RNA assay (Method A)
Format: physicochemical
Particulars: encapsulation efficiency of mRNA-loaded LNP, Method A, RiboGreen
Would you kindly list EE (%) for each of these compounds?
Give bare numbers, in %.

Some solved cases for reference:
Compound	Measurement label	Reported
CCCCCCCCC(CCCCCC)C(=O)OCCCCCCN(CCCCO)CCCCCCOC(=O)C(CCCCCC)CCCCCCCC (stereo not shown) [ALC-0315, reference compound]	EE (%)	94
C#CCN(C)CCCCCCO[Si](C)(C)OC(CC(C)(C)C(=O)OCCCCCCCC/C=C\CCCCCCCC)OCCCCCCCC/C=C\CCCCCCCC (stereo not shown) [Example 97]	EE (%)	86
CCCCCCCC/C=C\CCCCCCCCOC(=O)C(C)(C)CC(OCCCCCCCC/C=C\CCCCCCCC)O[Si](C)(C)OCCCCCCN(CCO)CCN(CCO)CCCCCCO[Si](C)(C)OC(CC(C)(C)C(=O)OCCCCCCCC/C=C\CCCCCCCC)OCCCCCCCC/C=C\CCCCCCCC (stereo not shown) [Example 96]	EE (%)	89
CCCCCCCC/C=C\CCCCCCCCOC(=O)C(C)(C)CCC(OCCCCCCCC/C=C\CCCCCCCC)O[Si](C)(C)OCCCCCCN1CCOCC1 (stereo not shown) [Example 95]	EE (%)	88
CCCCCCCC/C=C\CCCCCCCCOC(=O)C(C)(C)CC(OCCCCCCCC/C=C\CCCCCCCC)O[Si](C)(C)OCCCCCCN1CCCCC1CO (stereo not shown) [Example 89]	EE (%)	89

Could I get EE (%) for every one of these entries?
1. CCCCCCCC/C=C\CCCCCCCCOC(=O)C(C)(C)CCC(OCCCCCCCC/C=C\CCCCCCCC)O[Si](C)(C)OCCCCCCN(CCO)CCO (stereo not shown) [Example 94]
2. CCCCCCCC/C=C\CCCCCCCCOC(=O)C(C)(C)CC(OCCCCCCCC/C=C\CCCCCCCC)O[Si](C)(C)OCCCCCCN(CCO)CCO (stereo not shown) [Example 84]
3. CCCCC/C=C\C/C=C\CCCCCCCCOC(CCCCCCC/C=C\C/C=C\CCCCC)O[Si](C)(C)OCCCCCCN(CCO)CCO (stereo not shown) [Example 48]
4. CCCCC/C=C\C/C=C\CCCCCCCCOC(CCCCCCC/C=C\C/C=C\CCCCC)O[Si](C)(C)O[Si](C)(C)CCCCCCN(CCO)CCO (stereo not shown) [Example 82]
5. CCCCC/C=C\C/C=C\CCCCCCCCOC(CCCCCCCCCCCCCCC)O[Si](C)(C)OCCCCCCN(CCO)CCO (stereo not shown) [Example 43]
6. CCCCCCCC/C=C\CCCCCCCC(OCCCCCCCCCCCC1CCCCC1)O[Si](C)(C)OCCCCCCN(CCO)CCO (stereo not shown) [Example 74]
7. CCCCC/C=C\C/C=C\CCCCCCCCOC(CCCCCCC/C=C\C/C=C\CCCCC)O[Si](C)(C)OCCCCCCN1CCOCC1 (stereo not shown) [Example 55]

86
90
85
80
83
87
21

Could I get EE (%) for every one of these entries?
1. CCCCC/C=C\C/C=C\CCCCCCCCO[Si](C)(C)OC(CCCCCCC/C=C\C/C=C\CCCCC)OCCCCCCN(CCO)CCO (stereo not shown) [Example 40]
2. CCCCCCCCCCCCCCCCOC(CCCCCCCCCCCCCCC)O[Si](C)(C)OCCCCCCN(CCO)CCO (stereo not shown) [Example 49]
3. CCCCCCCC/C=C\CCCCCCCC(OCCCCCCCCCCCCCCC(C)C)O[Si](C)(C)OCCCCCCN(CCO)CCO (stereo not shown) [Example 76]

1: 87; 2: 84; 3: 80

Could I get EE (%) for every one of these entries?
1. CCCCC/C=C\C/C=C\CCCCCCCCOC(CCCCCCC/C=C\C/C=C\CCCCC)O[Si](C)(C)OCCCCCCN1CCN(CCO)CC1 (stereo not shown) [Example 58]
2. CCCCCCCC/C=C\CCCCCCCCOC(=O)C(C)(C)CC(OCCCCCCCC/C=C\CCCCCCCC)O[Si](C)(C)OCCCCCCN(C)CC(O)CO (stereo not shown) [Example 92]
3. CCCCCCCC/C=C\CCCCCCCCOC(CCCCCCC/C=C\CCCCCCCC)O[Si](C)(C)OCCCCCCN(CCO)CCO (stereo not shown) [Example 47]
4. CCCCCCCC/C=C\CCCCCCCCOC(=O)C(C)(C)CC(OCCCCCCCC/C=C\CCCCCCCC)O[Si](C)(C)OCCCCCCN1CCCC1CO (stereo not shown) [Example 90]
5. CCCCCCCC/C=C\CCCCCCCCOC(CCCCCCCCCCCCCCC)O[Si](C)(C)OCCCCCCN(CCO)CCO (stereo not shown) [Example 41]
6. CCCCC/C=C\C/C=C\CCCCCCCCOC(CCCCCCC/C=C\C/C=C\CCCCC)O[Si](C)(C)OCCCCCCN(C)Cc1cn(C2[C@H](O)O[C@H](CO)[C@@H](O)[C@@H]2O)nn1 (stereo partly shown) [Example 68]
7. CCCCC/C=C\C/C=C\CCCCCCCCOC(CCCCCCC/C=C\C/C=C\CCCCC)O[Si](C)(C)OCCCCCCN(C)CC(O)CO (stereo not shown) [Example 59]

[86, 89, 88, 87, 78, 88, 88]
